- System: NCI-H460
- experimental.protocol: NCI tumour cell line growth inhibition, 48 h
Calls of active or inactive are those of the source. Rule as the data show it: active = GI50 up to about 1.1 µM and inactive = higher.
measured.parameter: GI50

>>> experimental_value("O=C(O)Cc1ccc(Oc2nc3ccccc3nc2-c2cccs2)cc1")
"50.7 µM (inactive)"
>>> experimental_value("Cc1nnc(N/N=C2/C(=O)Nc3c(Cl)cc(Cl)cc32)n1N")
"> 100 µM (inactive)"
>>> experimental_value("COc1ccc(/C=C2\\CCS(=O)(=O)c3ccccc3C2=O)cc1")
"21.7 µM (inactive)"
>>> experimental_value("Cc1c(O)oc2ccccc2c1=O")
"> 100 µM (inactive)"
>>> experimental_value("COc1ccc(C2c3cc(OC)c(OC)cc3C(Cc3ccc([N+](=O)[O-])cc3)C2c2ccc([N+](=O)[O-])cc2)cc1OC (stereo unspecified)")
"> 100 µM (inactive)"
>>> experimental_value("CN1C(=O)CNS1(=O)=O")
"> 100 µM (inactive)"
>>> experimental_value("C[N+](C)(C)c1ccc(C(N)C(=O)O)cc1 (stereo unspecified)")
"> 100 µM (inactive)"
>>> experimental_value("CCOC(=O)CCC(NC(=O)c1ccc(/N=C/c2nc3cc(C(F)(F)F)ccc3nc2-c2ccccc2)cc1)C(=O)OCC (stereo unspecified)")
"24 µM (inactive)"
>>> experimental_value("Cc1cc(=O)c2ccccc2n1CCCCCCCCCCn1c(C)cc(=O)c2ccccc21")
"15.7 µM (inactive)"
>>> experimental_value("CCCO/N=[N+](\\[O-])N(CC)CC")
"> 100 µM (inactive)"
>>> experimental_value("CCN(CC)CCN1C(=O)c2cccc3cc(N)cc(c23)C1=O")
"3.98 µM (inactive)"
